Molecular target: T1, KDM7B PHD-finger (UniProt Q9UPP1-2 1-447)
T1 chain: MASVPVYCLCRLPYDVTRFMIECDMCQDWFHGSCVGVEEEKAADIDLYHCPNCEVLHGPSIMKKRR
Assay: ITC; His-Trx-tagged PHD
Bridge positions count the residues as written; N and C are the ends. Ends that are not written are not given here.
quantity-measured: Kd (nM)
Numbers only, in nM.

Prompt: Report Kd for {CH2CO}-YYLTHPYPSVFRTC (thioether N-14) [OC9, de novo cyclic peptide from mRNA display] please.
Response: 8

Where these numbers come from: paper PMC10321576
